Attribution: ChEMBL document CHEMBL4340566

Assay Explanation: Clearance in Sprague-Dawley rat at 1 mg/kg, iv or 2 mg/kg, po
Type: ADME, organism-based
Assay Context: in vivo
Observed Property: clearance (mL/min/kg)
Field: numeric (mL/min/kg). Do not append units.

Ask | I'd like to know its clearance. The compound in question is CC[C@@](c1ccc(C(F)(F)F)cc1)(C(C)O)n1ncc2c(NS(C)(=O)=O)cccc21 (stereo partly specified)
Reply | 14

---

Provide the reported pIC50 of each item.
The meaning of pIC50 here: minus log10 of the concentration in molar units.

Ask | Lab note: need pIC50 for CC[C@](CO)(c1ccc(Cl)cc1)n1ncc2c(NS(C)(=O)=O)cccc21 on Glucocorticoid receptor (Homo sapiens, UniProt P04150), anyone have it?
Reply | 6.06

Ask | Kindly state the measured pIC50 obtained for CC[C@@](c1ccc(C(F)(F)F)cc1)(C(C)O)n1ncc2c(NS(C)(=O)=O)cccc21 (some centres undefined) with Glucocorticoid receptor (Homo sapiens, UniProt P04150).
Reply | 5.78

Ask | Which measured pIC50 belongs to CC[C@@](c1ccc(C(F)(F)F)cc1)(C(C)O)n1ncc2c(NS(C)(=O)=O)cc(F)cc21 (single isomer, unassigned; diastereomer A) , tested on Glucocorticoid receptor (Homo sapiens, UniProt P04150)?
Reply | 4.99

Ask | API: value(readout=pIC50, system=Glucocorticoid receptor (Homo sapiens, UniProt P04150)) for record CC[C@](CO)(c1ccc(Cl)cc1)n1ccc2c(NS(C)(=O)=O)cc(F)cc21
Reply | 6.95
